Cited source: ChEMBL document CHEMBL5528054

MEASURED TARGET: Melanocortin receptor 4 (Homo sapiens, UniProt P32245)
Sequence (P32245 whole entry): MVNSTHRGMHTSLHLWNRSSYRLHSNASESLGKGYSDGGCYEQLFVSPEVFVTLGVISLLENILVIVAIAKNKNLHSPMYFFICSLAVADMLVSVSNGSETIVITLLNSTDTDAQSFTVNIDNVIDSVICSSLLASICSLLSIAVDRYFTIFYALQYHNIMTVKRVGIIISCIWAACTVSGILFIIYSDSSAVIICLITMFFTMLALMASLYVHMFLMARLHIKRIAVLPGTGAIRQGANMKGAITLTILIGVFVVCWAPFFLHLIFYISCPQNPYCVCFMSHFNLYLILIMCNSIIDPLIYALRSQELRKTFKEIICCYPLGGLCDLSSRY
PROTOCOL DETAILS: Antagonist activity at C-terminal HA-tagged human MC4-R stably expressed in HEK293 cells co-expressing GScAMP22P cAMP reporter assessed as inhibition of alpha-MSH induced cAMP production by cell based luminescence assay
Format: functional
ASSAY CONTEXT: read-out: IC50
READOUT NAME: pIC50
// pIC50 is dimensionless: -log10 of concentration (M)

Observe how each entry below is paired with its result.
# CPD SMILES, pIC50
records = [
    ("CCCC[C@H](NC(C)=O)C(=O)N[C@H]1CC(=O)NCCCC[C@@H](C(N)=O)NC(=O)CNC(=O)[C@H](Cc2c[nH]c3ccccc23)NC(=O)[C@H](CCCNC(=N)N)NC(=O)[C@@H](Cc2ccc3ccccc3c2)NC(=O)[C@@H]2C[C@H](NC(=O)CC3CCCCC3)CN2C1=O", 8.16),
    ("CCCCCCc1cn([C@H]2C[C@H]3C(=O)N[C@H](Cc4ccc5ccccc5c4)C(=O)N[C@@H](CCCNC(=N)N)C(=O)N[C@@H](Cc4c[nH]c5ccccc45)C(=O)NCC(=O)N[C@H](C(N)=O)CCCCNC(=O)C[C@H](NC(=O)[C@H](CCCC)NC(C)=O)C(=O)N3C2)nn1", 8.00),
    ("CCCC[C@H](NC(C)=O)C(=O)N[C@H]1CC(=O)NCCCC[C@@H](C(N)=O)NC(=O)CNC(=O)[C@H](Cc2c[nH]c3ccccc23)NC(=O)[C@H](CCCNC(=N)N)NC(=O)[C@@H](Cc2ccc3ccccc3c2)NC(=O)[C@@H]2C[C@H](NC(=O)[C@@H](N)CCC(=O)O)CN2C1=O", 8.55),
]

Task: So what's the measured pIC50 for this one? CCCC[C@H](NC(C)=O)C(=O)N[C@H]1CC(=O)NCCCC[C@@H](C(N)=O)NC(=O)CNC(=O)[C@H](Cc2c[nH]c3ccccc23)NC(=O)[C@H](CCCNC(=N)N)NC(=O)[C@@H](Cc2ccc3ccccc3c2)NC(=O)[C@@H]2C[C@H](n3cc(-c4ccccc4)nn3)CN2C1=O
Output: 8.27

Task: Give the measured pIC50 of CCCC[C@H](NC(C)=O)C(=O)N[C@H]1CC(=O)NCCCC[C@@H](C(N)=O)NC(=O)CNC(=O)[C@H](Cc2c[nH]c3ccccc23)NC(=O)[C@H](CCCNC(=N)N)NC(=O)[C@@H](Cc2ccc3ccccc3c2)NC(=O)[C@@H]2C[C@H](NC(=O)[C@@H](N)CCCN)CN2C1=O .
Output: 8.53

* * *

A collection of compounds and their measured pIC50
MEASURED TARGET: Melanocyte-stimulating hormone receptor (Homo sapiens, UniProt Q01726)
Sequence (Q01726 whole entry): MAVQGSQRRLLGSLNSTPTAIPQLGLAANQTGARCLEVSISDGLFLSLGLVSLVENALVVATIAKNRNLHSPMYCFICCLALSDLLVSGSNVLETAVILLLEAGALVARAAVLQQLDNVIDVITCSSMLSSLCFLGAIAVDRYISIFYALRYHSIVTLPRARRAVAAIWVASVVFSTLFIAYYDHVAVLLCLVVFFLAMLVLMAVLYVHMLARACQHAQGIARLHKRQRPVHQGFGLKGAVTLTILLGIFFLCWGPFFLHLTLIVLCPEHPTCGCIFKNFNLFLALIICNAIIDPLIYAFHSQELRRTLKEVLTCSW
PROTOCOL DETAILS: Partial agonist activity at C-terminal HA-tagged human MC1-R stably expressed in HEK293 cells co-expressing GScAMP22P cAMP reporter assessed as inhibition of alpha-MSH induced cAMP production by cell based luminescence assay
Assay type: functional
Units for pIC50: none; it is -log10 of a concentration expressed in mol/L.

# CPD SMILES, READOUT NAME, NUMERIC RESULT
measured = [
    ("CCCC[C@H](NC(C)=O)C(=O)N[C@H]1CC(=O)NCCCC[C@@H](C(N)=O)NC(=O)[C@H](CCCCN)NC(=O)[C@H](Cc2c[nH]c3ccccc23)NC(=O)[C@H](CCCNC(=N)N)NC(=O)[C@@H](Cc2ccc3ccccc3c2)NC(=O)[C@@H]2CCCN2C1=O", "pIC50", 6.80),
    ("CCCC[C@H](NC(C)=O)C(=O)N[C@H]1CC(=O)NCCCC[C@@H](C(N)=O)NC(=O)[C@H](CCCN)NC(=O)[C@H](Cc2c[nH]c3ccccc23)NC(=O)[C@H](CCCNC(=N)N)NC(=O)[C@@H](Cc2ccc3ccccc3c2)NC(=O)[C@@H]2CCCN2C1=O", "pIC50", 6.44),
    ("CCCC[C@H](NC(C)=O)C(=O)N[C@H]1CC(=O)NCCCC[C@@H](C(N)=O)NC(=O)CNC(=O)[C@H](Cc2c[nH]c3ccccc23)NC(=O)[C@H](CCCNC(=N)N)NC(=O)[C@@H](Cc2ccc3ccccc3c2)NC(=O)[C@@H]2C[C@@H](NC(=O)CCNC(=N)N)CN2C1=O", "pIC50", 10.10),
]

Task: Report pIC50 for CCCC[C@H](NC(C)=O)C(=O)N[C@H]1CC(=O)NCCCC[C@@H](C(N)=O)NC(=O)[C@H](CCCCNC(=N)NCCC(=O)O)NC(=O)[C@H](Cc2c[nH]c3ccccc23)NC(=O)[C@H](CCCNC(=N)N)NC(=O)[C@@H](Cc2ccc3ccccc3c2)NC(=O)[C@@H]2CCCN2C1=O please.
Output: 6.22

* * *

MEASURED TARGET: UniProtKB Q01726
PROTOCOL DETAILS: Partial agonist activity at C-terminal HA-tagged human MC1-R stably expressed in HEK293 cells co-expressing GScAMP22P cAMP reporter assessed as inhibition of alpha-MSH induced cAMP production by cell based luminescence assay
Type: functional
Measured pIC50, listed per entry for reference.
API: returns pIC50 as number; meaning -log10 of concentration in mol/L.

# CPD SMILES, MEASURED TARGET, pIC50
records = [
    ("CCCC[C@H](NC(C)=O)C(=O)N[C@H]1CC(=O)NCCCC[C@@H](C(N)=O)NC(=O)[C@H](CCCCNC(=N)NCCN)NC(=O)[C@H](Cc2c[nH]c3ccccc23)NC(=O)[C@H](CCCNC(=N)N)NC(=O)[C@@H](Cc2ccc3ccccc3c2)NC(=O)[C@@H]2CCCN2C1=O", "UniProtKB Q01726", 7.81),
    ("CCCC[C@H](NC(C)=O)C(=O)N[C@H]1CC(=O)NCCCC[C@@H](C(N)=O)NC(=O)CNC(=O)[C@H](Cc2c[nH]c3ccccc23)NC(=O)[C@H](CCCN=C(N)N)NC(=O)[C@@H](Cc2ccc3ccccc3c2)NC(=O)[C@@H]2CCCN2C1=O", "UniProtKB Q01726", 7.92),
    ("CCCC[C@H](NC(C)=O)C(=O)N[C@H]1CC(=O)NCCCC[C@@H](C(N)=O)NC(=O)CNC(=O)[C@H](Cc2c[nH]c3ccccc23)NC(=O)[C@H](CCCNC(=N)N)NC(=O)[C@@H](Cc2ccc3ccccc3c2)NC(=O)[C@@H]2C[C@H](NC(=O)Cc3ccccc3)CN2C1=O", "UniProtKB Q01726", 7.87),
    ("CCCC[C@H](NC(C)=O)C(=O)N[C@H]1CC(=O)NCCCC[C@@H](C(N)=O)NC(=O)CNC(=O)[C@H](Cc2c[nH]c3ccccc23)NC(=O)[C@H](CCCNC(=N)N)NC(=O)[C@@H](Cc2ccc3ccccc3c2)NC(=O)[C@@H]2C[C@H](n3cc(C4CCCCC4)nn3)CN2C1=O", "UniProtKB Q01726", 7.11),
    ("CCCC[C@H](NC(C)=O)C(=O)N[C@H]1CC(=O)NCCCC[C@@H](C(N)=O)NC(=O)[C@H](CCCNC(N)=O)NC(=O)[C@H](Cc2c[nH]c3ccccc23)NC(=O)[C@H](CCCNC(=N)N)NC(=O)[C@@H](Cc2ccc3ccccc3c2)NC(=O)[C@@H]2CCCN2C1=O", "UniProtKB Q01726", 6.24),
    ("CCCC[C@H](NC(C)=O)C(=O)N[C@H]1CC(=O)NCCCC[C@@H](C(N)=O)NC(=O)CNC(=O)[C@H](Cc2c[nH]c3ccccc23)NC(=O)[C@H](CCCNC(=N)N)NC(=O)[C@@H](Cc2ccc3ccccc3c2)NC(=O)[C@@H]2C[C@H](n3cc(C(C)(C)N)nn3)CN2C1=O", "UniProtKB Q01726", 8.60),
    ("CCCC[C@H](NC(C)=O)C(=O)N[C@H]1CC(=O)NCCCC[C@@H](C(N)=O)NC(=O)CNC(=O)[C@H](Cc2c[nH]c3ccccc23)NC(=O)[C@H](CCCNC(=N)N)NC(=O)[C@@H](Cc2ccc3ccccc3c2)NC(=O)[C@@H]2C[C@H](n3cc(-c4ccccc4)nn3)CN2C1=O", "UniProtKB Q01726", 7.27),
]

// next item, pIC50 requested
Task: If you can, please state the reported pIC50 value of CCCC[C@H](NC(C)=O)C(=O)N[C@H]1CC(=O)NCCCC[C@@H](C(N)=O)NC(=O)CNC(=O)[C@H](Cc2c[nH]c3ccccc23)NC(=O)[C@H](CCCNC(=N)N)NC(=O)[C@@H](Cc2ccc3ccccc3c2)NC(=O)[C@@H]2C[C@H](NC(=O)CCNC(=N)N)CN2C1=O .
Output: 9.92

* * *

MEASURED TARGET: Melanocyte-stimulating hormone receptor (Homo sapiens, UniProt Q01726)
PROTOCOL DETAILS: Partial agonist activity at C-terminal HA-tagged human MC1-R stably expressed in HEK293 cells co-expressing GScAMP22P cAMP reporter assessed as inhibition of alpha-MSH induced cAMP production by cell based luminescence assay
Assay type: functional
# Lookup of reported IC50 keyed by entry
Note: unit nM is implicit; provide only the numeric part.

# CPD SMILES, MEASURED TARGET, IC50 (nM)
records = [
    ("CCCC[C@H](NC(C)=O)C(=O)N[C@H]1CC(=O)NCCCC[C@@H](C(N)=O)NC(=O)CNC(=O)[C@H](Cc2c[nH]c3ccccc23)NC(=O)[C@H](CCCNC(=N)N)NC(=O)[C@@H](Cc2ccc3ccccc3c2)NC(=O)[C@@H]2C[C@H](n3cc(CCNC(=N)N)nn3)CN2C1=O", "Melanocyte-stimulating hormone receptor (Homo sapiens, UniProt Q01726)", 5.09),
    ("CCCC[C@H](NC(C)=O)C(=O)N[C@H]1CC(=O)NCCCC[C@@H](C(N)=O)NC(=O)[C@H](CCCCNC(=N)N(CCC)CCC)NC(=O)[C@H](Cc2c[nH]c3ccccc23)NC(=O)[C@H](CCCNC(=N)N)NC(=O)[C@@H](Cc2ccc3ccccc3c2)NC(=O)[C@@H]2CCCN2C1=O", "Melanocyte-stimulating hormone receptor (Homo sapiens, UniProt Q01726)", 175),
    ("CCCC[C@H](NC(C)=O)C(=O)N[C@H]1CC(=O)NCCCC[C@@H](C(N)=O)NC(=O)CNC(=O)[C@H](Cc2c[nH]c3ccccc23)NC(=O)[C@H](CCCNC(=N)N)NC(=O)[C@@H](Cc2ccc3ccccc3c2)NC(=O)[C@@H]2C[C@H](NC(=O)c3ccccc3)CN2C1=O", "Melanocyte-stimulating hormone receptor (Homo sapiens, UniProt Q01726)", 22.5),
]

Switching to the query record.
Task: What value of measured IC50 is listed for CCCC[C@H](NC(C)=O)C(=O)N[C@H]1CC(=O)NCCCC[C@@H](C(N)=O)NC(=O)CNC(=O)[C@H](Cc2c[nH]c3ccccc23)NC(=O)[C@H](CCCNC(=N)N)NC(=O)[C@@H](Cc2ccc3ccccc3c2)NC(=O)[C@@H]2C[C@H](n3cc(CCN)nn3)CN2C1=O ?
Output: 1.71
